Origin of measurements: patent US12077503B2

Tested on: giant foxtail (Setaria faberii)
experimentSummary: Test A preemergence
Format: in vivo
setupConditions: Setaria faberi, pre-emergence, 240 h, 31 g ai/ha, Preemergence; 0 to 100 scale where 0 is no effect and 100 is complete control; read-out: Foxtail, Giant plant response rating
propertyMeasured: pest or weed control at 31 g/ha

Below, 4 molecules whose answers are already recorded.
| chemicalString | pest or weed control at 31 g/ha |
| --- | --- |
| COc1c([C@H]2CN(C)C(=O)[C@@H]2C(=O)Nc2ccccc2SC)cccc1C(F)(F)F | 40% |
| CSc1ccccc1NC(=O)[C@H]1C(=O)N(C)C[C@@H]1c1ccc(F)c(Oc2ccccc2)c1 | 30% |
| O=C1NC[C@H](c2csc3c2CCCC3)[C@H]1C(=O)Nc1cccc(F)c1F | 10% |
| Cc1ccc([C@H]2CN(C)C(=O)[C@@H]2C(=O)Nc2cnccc2C)cc1 | 0% |

// query Give the measured pest or weed control at 31 g/ha of "COc1cccc([C@H]2CN(C)C(=O)[C@@H]2C(=O)Nc2cccc(F)c2F)c1F" .
// result 90%
